assay: Apparent clearance during terminal phase in Sprague-Dawley rat at 10 mg/kg, ip measured upto 24 hrs by LC-MS analysis; type: ADME, organism-based; conditions: in vivo, read-out: CLz/F (converted)
READOUT_KIND: CL/F (mL/min/kg)
I only need the number, in mL/min/kg, no unit after it.

**Q:** Identify measured CL/F associated with O=C(CCCCC1CCSS1)N1CCN(C(c2ccc(F)cc2)c2ccc(F)cc2)CC1 (stereo unspecified)
**A:** 102

----------
assay: Cmax in Sprague-Dawley rat at 10 mg/kg, ip measured upto 24 hrs by LC-MS analysis; format: ADME, organism-based; conditions: in vivo
READOUT_KIND: Cmax (ng/mL)
I only need the number, in ng/mL, no unit after it.

**Q:** Identify measured Cmax associated with O=C(CCCCC1CCSS1)N1CCN(C(c2ccc(F)cc2)c2ccc(F)cc2)CC1 (stereo unspecified)
**A:** 9950

FYI, the data here is from ChEMBL document CHEMBL6083212.
